These data points were gathered from ChEMBL document CHEMBL1130344.

# Test name: Oral bioavailability in rat
# Format: ADME, organism-based
# Condition parameters: in vivo
Recorded metric: bioavailability (%)
One number for each entry, in %.

Solved cases (4 shown):
| Smiles notation | Quantity unit | bioavailability |
| --- | --- | --- |
| Cc1noc(NS(=O)(=O)c2ccsc2C(=O)Nc2ccc3c(c2C#N)OCO3)c1Cl | % | 8 |
| CC(=O)c1c(NC(=O)c2sccc2S(=O)(=O)Nc2onc(C)c2Cl)ccc2c1OCO2 | % | 27 |
| Cc1cc2c(cc1CC(=O)c1sccc1S(=O)(=O)Nc1onc(C)c1Cl)OCO2 | % | 60 |
| Cc1noc(NS(=O)(=O)c2ccsc2C(=O)Nc2ccc3c(c2)OCO3)c1Br | % | 0 |

-- ask I would be grateful if you could share the reported bioavailability for `COc1cc(C#N)c(NC(=O)c2sccc2S(=O)(=O)Nc2onc(C)c2Cl)cc1OC` .
-- reply 2

---

# Target of assay: Endothelin receptor type B (Homo sapiens)
# Test name: In vitro inhibition of endothelin binding to human Endothelin B receptor using [125I]-labeled ET-1 competition assay
Please respond with Condition met when measured IC50 is strictly beneath 30 µM, and with Condition not met in all other cases.

-- ask Strictly below 30 µM: is that where IC50 of `Cc1noc(NS(=O)(=O)c2ccsc2C(=O)Cc2ccc3c(c2)OCO3)c1Cl` sits?
-- reply Condition met

-- ask Strictly below 30 µM: is that where IC50 of `COc1cccc(CC(=O)c2sccc2S(=O)(=O)Nc2onc(C)c2Cl)c1` sits?
-- reply Condition met

-- ask Strictly below 30 µM: is that where IC50 of `Cc1noc(NS(=O)(=O)c2ccsc2C(=O)Nc2ccc3c(c2C)OCO3)c1Cl` sits?
-- reply Condition not met

---

# Target of assay: Endothelin-1 receptor (Homo sapiens, UniProt P25101)
# Sequence (P25101 whole entry): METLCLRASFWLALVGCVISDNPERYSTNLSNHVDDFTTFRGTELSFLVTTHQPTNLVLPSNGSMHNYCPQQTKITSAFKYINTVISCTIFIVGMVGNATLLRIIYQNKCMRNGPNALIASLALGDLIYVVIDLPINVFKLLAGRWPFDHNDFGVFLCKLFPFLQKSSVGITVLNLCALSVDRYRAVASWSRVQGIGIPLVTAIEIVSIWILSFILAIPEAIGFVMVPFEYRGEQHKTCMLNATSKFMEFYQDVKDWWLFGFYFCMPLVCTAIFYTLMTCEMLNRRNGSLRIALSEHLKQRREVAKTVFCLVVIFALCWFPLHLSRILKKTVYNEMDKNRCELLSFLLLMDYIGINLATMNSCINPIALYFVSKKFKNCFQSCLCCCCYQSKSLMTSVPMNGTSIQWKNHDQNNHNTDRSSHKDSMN
pIC50: −log10 of the molar value.
# label = Yes if pIC50 >= 8 else No

Check out these entries, answers already filled in.
| Compound | Group label |
| --- | --- |
| CC#N.Cc1noc(NS(=O)(=O)c2ccsc2C(=O)Cc2cc3c(cc2C#N)OCO3)c1Cl | Yes |
| Cc1cc2c(cc1CC(=O)c1sccc1S(=O)(=O)Nc1onc(C)c1Cl)OCO2 [SITAXENTAN] | Yes |
| Cc1noc(NS(=O)(=O)c2ccsc2C(O)Cc2ccc3c(c2)OCO3)c1Cl (stereo not given) | No |

-- ask Does pIC50 meet or surpass 8 for `Cc1ccc(CC(=O)c2sccc2S(=O)(=O)Nc2onc(C)c2Br)cc1` ?
-- reply No

---

# Test name: Oral bioavailability in rat
# Assay type: ADME, organism-based
# Condition parameters: in vivo
Recorded metric: bioavailability (%)
One number for each entry, in %.

| Smiles notation | Recorded metric | Quantity unit | Meas value |
| --- | --- | --- | --- |
| Cc1cc2c(cc1CC(=O)c1sccc1S(=O)(=O)Nc1onc(C)c1C)OCO2 | bioavailability | % | 100 |
| Cc1noc(NS(=O)(=O)c2ccsc2C(=O)Cc2ccc3c(c2)OCO3)c1Cl | bioavailability | % | 30 |

With those in mind, consider the next compound.
-- ask I would be grateful if you could share the reported bioavailability for `Cc1ccc(NC(=O)c2sccc2S(=O)(=O)Nc2onc(C)c2Cl)cc1` .
-- reply 0

---

# Target of assay: Endothelin-1 receptor (Homo sapiens, UniProt P25101)
Could you please report measured pIC50 for the items listed next?
Numbers only, as −log10 of the molar value.

Solved cases (3 shown):
| Molecule | Target of assay | Recorded metric | Meas value |
| --- | --- | --- | --- |
| Cc1noc(NS(=O)(=O)c2ccsc2C(=O)NC(=O)c2ccc3c(c2)OCO3)c1Br | Endothelin-1 receptor (Homo sapiens, UniProt P25101) | pIC50 | 6.05 |
| Cc1noc(NS(=O)(=O)c2ccsc2C(=O)N2CCN(Cc3ccc4c(c3)OCO4)CC2)c1Cl | Endothelin-1 receptor (Homo sapiens, UniProt P25101) | pIC50 | 4.71 |
| Cc1noc(NS(=O)(=O)c2ccsc2/C(Cc2ccc3c(c2)OCO3)=N\O)c1Cl | Endothelin-1 receptor (Homo sapiens, UniProt P25101) | pIC50 | 5.96 |

Look at each molecule and report its pIC50.
1. Cc1ccc(CC(=O)c2sccc2S(=O)(=O)Nc2onc(C)c2C)cc1
2. Cc1noc(NS(=O)(=O)c2ccsc2C(C)(O)Cc2ccc3c(c2)OCO3)c1Cl (centres undefined)
3. Cc1ccc(CC(=O)c2sccc2S(=O)(=O)Nc2onc(C)c2Br)c(C)c1

-- reply
[7.57, 4.65, 9.12]

Look at each molecule and report its pIC50.
1. Cc1noc(NS(=O)(=O)c2ccsc2C(=O)c2ccc3c(c2)OCO3)c1Br
2. Cc1noc(NS(=O)(=O)c2ccsc2C(=O)Nc2ccc3c(c2C)OCO3)c1Cl
3. Cc1noc(NS(=O)(=O)c2ccsc2C(=O)Cc2ccc3c(c2)OCO3)c1Cl

-- reply
1: 5.70; 2: 8.52; 3: 7.74

---

# Test name: Serum half life in rat
# Assay type: ADME, organism-based
Could you please report measured half-life for the items listed next?
Answers are plain numbers, in h.

Solved cases (4 shown):
| Molecule | Meas value |
| --- | --- |
| Cc1noc(NS(=O)(=O)c2ccsc2C(=O)Nc2ccc3c(c2C#N)OCO3)c1Cl | 2.5 |
| Cc1noc(NS(=O)(=O)c2ccsc2C(=O)Cc2ccc3c(c2)OCO3)c1Cl | 1.5 |
| Cc1cc2c(cc1CC(=O)c1sccc1S(=O)(=O)Nc1onc(C)c1C)OCO2 | 7 |
| CC(=O)c1c(NC(=O)c2sccc2S(=O)(=O)Nc2onc(C)c2Cl)ccc2c1OCO2 | 2.5 |

-- ask I would be grateful if you could share the reported half-life for Cc1cc2c(cc1CC(=O)c1sccc1S(=O)(=O)Nc1onc(C)c1Cl)OCO2 [SITAXENTAN] .
-- reply 6.7

---

# Target of assay: UniProt P24530
# Sequence (P24530 whole entry): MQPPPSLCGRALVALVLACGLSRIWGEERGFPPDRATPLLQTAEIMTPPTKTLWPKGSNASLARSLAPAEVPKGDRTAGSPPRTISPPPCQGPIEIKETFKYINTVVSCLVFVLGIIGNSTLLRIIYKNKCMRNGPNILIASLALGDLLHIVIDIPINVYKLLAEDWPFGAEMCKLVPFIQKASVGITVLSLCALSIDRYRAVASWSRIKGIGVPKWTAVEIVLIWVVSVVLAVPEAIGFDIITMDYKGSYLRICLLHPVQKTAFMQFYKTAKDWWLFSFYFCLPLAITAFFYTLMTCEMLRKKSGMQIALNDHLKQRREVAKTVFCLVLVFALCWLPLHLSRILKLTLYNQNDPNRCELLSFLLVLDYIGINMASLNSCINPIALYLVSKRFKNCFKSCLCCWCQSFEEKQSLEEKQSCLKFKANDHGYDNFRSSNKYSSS
Recorded metric: IC50 (µM)
One number for each entry, in µM.

| Molecule | Quantity unit | Meas value |
| --- | --- | --- |
| Cc1noc(NS(=O)(=O)c2ccsc2C(=O)Cc2ccc3c(c2)OCO3)c1C | µM | 27.2 |
| Cc1noc(NS(=O)(=O)c2ccsc2C2(Cc3ccc4c(c3)OCO4)OCCO2)c1Cl | µM | 2.1 |
| Cc1cc2c(cc1CC(=O)c1sccc1S(=O)(=O)Nc1onc(C)c1Cl)OCO2 [SITAXENTAN] | µM | 9.8 |
| CC#N.Cc1noc(NS(=O)(=O)c2ccsc2C(=O)Cc2cc3c(cc2C#N)OCO3)c1Cl | µM | 0.723 |

With those in mind, consider the next molecule.
-- ask API: value(readout=IC50, system=UniProt P24530) for record `Cc1noc(NS(=O)(=O)c2ccsc2C(=O)NC(=O)c2ccc3c(c2)OCO3)c1Br`
-- reply 37.2

---

# Test name: Serum half life in rat
# Type: ADME, organism-based
Recorded metric: half-life

| Smiles notation | Recorded metric | Meas value |
| --- | --- | --- |
| COc1cc(C#N)c(NC(=O)c2sccc2S(=O)(=O)Nc2onc(C)c2Cl)cc1OC | half-life | < 9 min |
| Cc1noc(NS(=O)(=O)c2ccsc2C(=O)Nc2ccc3c(c2)OCO3)c1Br | half-life | < 30 min |

With those in mind, consider the next molecule.
-- ask I would be grateful if you could share the reported half-life for `Cc1ccc(NC(=O)c2sccc2S(=O)(=O)Nc2onc(C)c2Cl)cc1` .
-- reply < 30 min
